What Kb was measured for each of the following?
# target: UniProt:P43116
# method.summary: Schild regression of PGE2-induced EP2 activation in C6G-EP2 cells
# Assay type: cell-based
# Set-up: expressed in transfected cells; host or cells: C6G-EP2 cells
# condition.context: C6G-EP2 cells, PGE2 as agonist; read-out: KB (nM) EP2, from Schild regression analysis
Please state the number and follow it with the unit.

IN: Reported Kb for Cc1cc2ccccc2n1CCNC(=O)C=Cc1ccc(CC(C)C)cc1 : what is it?
OUT: 82.4 nM

IN: Could you tell me which Kb is on file for CCOc1ccc(C=CC(=O)NCCn2c(C)cc3ccccc32)cc1OC ?
OUT: 7.2 nM

IN: I'd like to know its Kb. The compound in question is COc1ccc(C=CC(=O)NCCn2c(C)nc3ccccc32)cc1OC
OUT: 947 nM

IN: Param item = COc1ccc(/C=C/C(=O)NCCn2c(C)cc3cc(F)ccc32)cc1Cl ; retrieve measured Kb.
OUT: 6.3 nM

IN: Fill in: Kb of Cc1cc2ccccc2n1CCNC(=O)C=Cc1ccc(F)c(F)c1 is ___
OUT: 3.8 nM

IN: Query (compound): Cc1cc2cc(F)ccc2n1CCNC(=O)C=Cc1cc(F)c(F)c(F)c1 ; field requested: Kb
OUT: 27.8 nM

IN: Fill in the blank: the reported Kb of COc1cc(C=CC(=O)N(C)CCn2c(C)cc3ccccc32)cc(OC)c1OC is ____.
OUT: 185 nM

IN: Name the recorded Kb for COc1cc(C=CC(=O)NCCn2cnc3ccccc32)cc(OC)c1OC .
OUT: 2520 nM

---

# target: EP2 receptor (Homo sapiens)
# Sequence (P43116 whole entry): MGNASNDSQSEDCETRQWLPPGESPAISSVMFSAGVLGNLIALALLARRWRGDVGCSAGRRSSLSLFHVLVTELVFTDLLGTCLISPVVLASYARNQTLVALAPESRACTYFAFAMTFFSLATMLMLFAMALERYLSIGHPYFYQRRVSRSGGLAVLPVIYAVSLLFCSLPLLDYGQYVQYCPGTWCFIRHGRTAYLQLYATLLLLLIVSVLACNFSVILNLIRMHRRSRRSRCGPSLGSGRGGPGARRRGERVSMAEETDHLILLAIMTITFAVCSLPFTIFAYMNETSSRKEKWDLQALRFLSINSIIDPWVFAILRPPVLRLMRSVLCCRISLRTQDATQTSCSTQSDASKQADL
# method.summary: Schild regression of PGE2-induced EP2 activation in C6G-EP2 cells
# Type: cell-based
# Parameters: expressed in transfected cells; host or cells: C6G-EP2 cells
# condition.context: additional compounds tables; read-out: EP2 KB
Please provide measured Kb for the entries that follow.
Give the number; µM is assumed, so skip it.

IN: Consider the compound Cc1cc2ccccc2n1CCNC(=O)c1ccc(C(N)=O)cc1 [TG7-140] and give its measured Kb.
OUT: 0.15

IN: Could you tell me which Kb is on file for CC(=O)Nc1ccc(C(=O)NCCn2c(C)cc3ccccc32)cc1 [TG7-117] ?
OUT: 0.083

IN: So what does the record say about Kb for Cc1cc2ccccc2n1CCNC(=O)c1ccc(C#N)cc1 [TG7-147] ?
OUT: 0.139

---

# Test system: C6G cells
# method.summary: CellTiter-Glo luminescent cell viability assay (cytotoxicity)
metric.name: Therapeutic index (in vitro), CC50/KB for EP2

IN: What does the record list as Therapeutic index (in vitro), CC50/KB for EP2 for Cc1cc2ccccc2n1CCNC(=O)C=Cc1ccc2c(c1)OCO2 ?
OUT: 8,070

IN: Name the recorded Therapeutic index (in vitro), CC50/KB for EP2 for COc1ccc(C=CC(=O)NCCn2c(C)cc3cc(F)ccc32)cc1OC .
OUT: 11,900

IN: Tell me the measured Therapeutic index (in vitro), CC50/KB for EP2 of COc1cc(C=CC(=O)NCCCn2c(C)cc3ccccc32)cc(OC)c1OC , please.
OUT: 98

IN: GET /values?readout=Therapeutic index (in vitro), CC50/KB for EP2&item= COc1ccc(C=CC(=O)NCCn2c(C)cc3ccccc32)cc1OC
OUT: 86,300

IN: Recorded Therapeutic index (in vitro), CC50/KB for EP2 for COc1cc(C=CC(=O)N(C)CCn2c(C)cc3ccccc32)cc(OC)c1OC , please?
OUT: 1,500

---

# target: EP4 receptor (Homo sapiens, UniProt P35408)
# Sequence (P35408 whole entry): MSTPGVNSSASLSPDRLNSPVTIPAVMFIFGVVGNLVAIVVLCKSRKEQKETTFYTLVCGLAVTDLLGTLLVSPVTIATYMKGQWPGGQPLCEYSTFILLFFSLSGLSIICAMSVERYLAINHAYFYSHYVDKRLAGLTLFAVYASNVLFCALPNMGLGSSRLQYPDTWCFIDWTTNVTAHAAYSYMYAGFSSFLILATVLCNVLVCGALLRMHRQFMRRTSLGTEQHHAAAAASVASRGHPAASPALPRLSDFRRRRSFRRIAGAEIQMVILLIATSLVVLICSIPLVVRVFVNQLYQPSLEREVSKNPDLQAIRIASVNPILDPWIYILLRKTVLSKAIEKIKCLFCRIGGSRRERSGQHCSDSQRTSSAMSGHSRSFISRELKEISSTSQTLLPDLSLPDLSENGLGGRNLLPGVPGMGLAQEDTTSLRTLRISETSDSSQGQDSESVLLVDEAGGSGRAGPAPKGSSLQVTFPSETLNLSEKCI
# method.summary: Schild regression analysis for EP4 receptor
# Type: cell-based
# condition.context: read-out: KB (μM) EP4, from Schild regression analysis
metric.name: log10(Kb) (log10 of the value in µM)
Lab note - Kb converted to log10 from values in µM.

IN: log10(Kb) for Cc1cc2ccccc2n1CCNC(=O)C=Cc1ccc2c(c1)OCO2 [1o] ?
OUT: 1.06

IN: Quick one: log10(Kb) for COc1ccc(C=CC(=O)NCCn2c(C)nc3ccccc32)cc1OC [1b] ?
OUT: 1.12

IN: Form field: reported log10(Kb) of Cc1cc2ccccc2n1CCNC(=O)C=Cc1cc(F)c(F)c(F)c1 [1t]
OUT: 1.24

IN: Field request: log10(Kb) | item: COc1ccc(C=CC(=O)NCCn2c(C)cc3cc(F)ccc32)cc1 [1n]
OUT: 1.07

IN: Recorded log10(Kb) of COc1ccc(C=CC(=O)NCCn2c(C)cc3ccccc32)cc1 [1m] , please.
OUT: 0.90

IN: Any idea what its log10(Kb) is? The compound is COc1cc(/C=C/C(=O)NCCN2CCCCC2C)cc(OC)c1OC (stereo not shown) [1e]
OUT: 1.28

IN: Item COc1ccc(/C=C/C(=O)NCCn2c(C)cc3ccccc32)cc1Cl [1w] has what recorded log10(Kb)?
OUT: 0.67

IN: Consider the compound shown here: COc1ccc(/C=C/C(=O)NCCn2c(C(F)(F)F)cc3ccccc32)cc1OC [1i] What is its recorded log10(Kb)?
OUT: 1.35

IN: Give the measured log10(Kb) of COc1cc(C=CC(=O)NCCn2cnc3ccccc32)cc(OC)c1OC [1d] .
OUT: 1.14

IN: Return reported log10(Kb); argument: COc1ccc(C=CC(=O)NCCn2c(C)cc3cc(F)ccc32)cc1OC [1g]
OUT: 0.23

---

# System: C6G cells
# method.summary: CellTiter-Glo luminescent cell viability assay (cytotoxicity)
Provide the reported Therapeutic index (in vitro), CC50/KB for EP2 of each item.

IN: Fill in the recorded Therapeutic index (in vitro), CC50/KB for EP2 for this molecule, with C6G cells as test system: COc1cc(C=CC(=O)NCCn2c(C)cc3cc(F)ccc32)cc(OC)c1OC [1f]
OUT: 73,800

IN: Record Cc1cc2ccccc2n1CCNC(=O)C=Cc1ccc(CC(C)C)cc1 [1q] : what is its Therapeutic index (in vitro), CC50/KB for EP2 with C6G cells?
OUT: 2,420

IN: Lab note: need Therapeutic index (in vitro), CC50/KB for EP2 with C6G cells for entry COc1ccc(C=CC(=O)NCCn2c(C)cc3ccccc32)cc1 [1m] , please look it up.
OUT: 187,000

IN: Under C6G cells: Therapeutic index (in vitro), CC50/KB for EP2 value of COc1cc(C=CC(=O)NCCn2c(C)nc3ccccc32)cc(OC)c1OC [1a] ?
OUT: 1,030

---

# target: UniProt:P35408
# method.summary: Schild regression analysis for EP4 receptor
# Assay type: cell-based
metric.name: Selective index, KB EP4/KB EP2

IN: I am curious: what Selective index, KB EP4/KB EP2 value has been reported for Cc1cc2cc(F)ccc2n1CCNC(=O)C=Cc1ccc(F)c(F)c1 [1s] ?
OUT: 1,990

IN: GET /values?readout=Selective index, KB EP4/KB EP2&item= Cc1cc2ccccc2n1CCNC(=O)C=Cc1ccc(F)c(F)c1 [1r]
OUT: 2,800

IN: Give the measured Selective index, KB EP4/KB EP2 of COc1cc(C=CC(=O)NCCCn2c(C)cc3ccccc32)cc(OC)c1OC [1j] .
OUT: 3

IN: Query (molecule): COc1cc(C=CC(=O)NCCn2c(C)cc3cc(F)ccc32)cc(OC)c1OC [1f] ; field requested: Selective index, KB EP4/KB EP2
OUT: 2,600

IN: Would you kindly share the measured Selective index, KB EP4/KB EP2 for COc1ccc(C=CC(=O)NCCn2c(C)cc3cc(F)ccc32)cc1OC [1g] ?
OUT: 77

IN: Selective index, KB EP4/KB EP2 lookup needed for COc1ccc(/C=C/C(=O)NCCn2c(C)cc3cc(F)ccc32)cc1Cl [1x] , thanks.
OUT: 525

IN: Value lookup for Selective index, KB EP4/KB EP2; key = Cc1cc2ccccc2n1CCNC(=O)C=Cc1ccc(CC(C)C)cc1 [1q]
OUT: 367

IN: # lookup: Selective index, KB EP4/KB EP2 of COc1cc(C=CC(=O)NCCn2c(C)nc3ccccc32)cc(OC)c1OC [1a]
OUT: 39

IN: # input molecule: COc1ccc(C=CC(=O)NCCn2c(C)cc3cc(F)ccc32)cc1 [1n] ; wanted: its Selective index, KB EP4/KB EP2
OUT: 277

IN: Could you tell me which Selective index, KB EP4/KB EP2 is on file for Cc1cc2cc(F)ccc2n1CCNC(=O)C=Cc1cc(F)c(F)c(F)c1 [1u] ?
OUT: 715

IN: Query (molecule): Cc1nc2ccccc2n1CCNC(=O)C=Cc1ccc2c(c1)OCO2 [1c] ; field requested: Selective index, KB EP4/KB EP2
OUT: 10

IN: Need Selective index, KB EP4/KB EP2 of COc1cc(OC)c(C=CC(=O)NCCn2c(C)cc3ccccc32)cc1Br [1y] , thanks.
OUT: 859

IN: Need Selective index, KB EP4/KB EP2 of Cc1cc2ccccc2n1CCNC(=O)C=Cc1cc(F)c(F)c(F)c1 [1t] , thanks.
OUT: 921

IN: Param item = COc1ccc(/C=C/C(=O)NCCn2c(C(F)(F)F)cc3ccccc32)cc1OC [1i] ; retrieve measured Selective index, KB EP4/KB EP2.
OUT: 381

IN: Item COc1ccc(/C=C/C(=O)NCCn2c(C)cc3ccccc32)cc1Cl [1w] has what recorded Selective index, KB EP4/KB EP2?
OUT: 2,470
